Catalogue of IC50 readings, one per entry.
target_entity: Alpha-1B adrenergic receptor (Homo sapiens)
Sequence (P35368 whole entry): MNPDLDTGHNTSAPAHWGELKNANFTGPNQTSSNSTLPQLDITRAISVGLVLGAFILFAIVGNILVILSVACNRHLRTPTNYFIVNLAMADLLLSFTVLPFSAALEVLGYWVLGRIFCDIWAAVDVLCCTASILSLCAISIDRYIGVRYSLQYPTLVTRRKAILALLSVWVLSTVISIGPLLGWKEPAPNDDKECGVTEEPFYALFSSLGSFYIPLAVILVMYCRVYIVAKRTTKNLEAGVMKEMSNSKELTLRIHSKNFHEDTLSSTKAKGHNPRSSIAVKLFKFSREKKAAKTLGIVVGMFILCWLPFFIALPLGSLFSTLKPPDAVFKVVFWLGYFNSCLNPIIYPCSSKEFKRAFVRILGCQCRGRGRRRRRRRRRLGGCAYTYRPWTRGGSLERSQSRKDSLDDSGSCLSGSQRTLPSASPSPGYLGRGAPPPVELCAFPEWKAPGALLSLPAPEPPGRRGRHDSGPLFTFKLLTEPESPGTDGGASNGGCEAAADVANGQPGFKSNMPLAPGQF
test_description: Inhibitory concentration against radioligand binding to human Alpha-1B adrenergic receptor, expressed in rat 1 fibroblast cells
Please state the number and follow it with the unit.

- compound: "Cn1nccc1-c1ccccc1NCC1=NCCN1"
  target_entity: "Alpha-1B adrenergic receptor (Homo sapiens)"
  IC50: "398 nM"

Here's the next entry for you.
Input line: Consider the compound shown here: "c1ccc(-c2cc[nH]n2)c(NCC2=NCCN2)c1" What is its recorded IC50?
Output line: 158 nM

###

target_entity: Alpha-1B adrenergic receptor (Homo sapiens)
test_description: Agonism of human alpha-1B adrenergic receptor, expressed in rat 1 fibroblast cells
Format: functional, cell-based
pEC50: −log10 of the molar value.
Catalogue of pEC50 readings, one per entry.

Input line: Consider the compound shown here: "Cn1nccc1-c1ccccc1NCC1=NCCN1" What is its recorded pEC50?
Output line: < 4.00

Input line: Consider the compound shown here: "Cc1n[nH]c(-c2ccccc2NCC2=NCCN2)n1" What is its recorded pEC50?
Output line: < 5.30

Input line: Consider the compound shown here: "CCn1ncnc1-c1ccccc1NCC1=NCCN1" What is its recorded pEC50?
Output line: 7.20

Input line: Consider the compound shown here: "Cn1ncnc1-c1ccccc1NCC1=NCCN1" What is its recorded pEC50?
Output line: 7.40

Input line: Consider the compound shown here: "c1ccc(-c2cn[nH]c2)c(NCC2=NCCN2)c1" What is its recorded pEC50?
Output line: 7.10

Input line: Consider the compound shown here: "Cn1cc(-c2ccccc2NCC2=NCCN2)cn1" What is its recorded pEC50?
Output line: < 4.00
